Molecular target: KAT-6A (Homo sapiens (Human), UniProt Q92794)
Sequence (Q92794 other isoform, or with tags, fused parts or gaps): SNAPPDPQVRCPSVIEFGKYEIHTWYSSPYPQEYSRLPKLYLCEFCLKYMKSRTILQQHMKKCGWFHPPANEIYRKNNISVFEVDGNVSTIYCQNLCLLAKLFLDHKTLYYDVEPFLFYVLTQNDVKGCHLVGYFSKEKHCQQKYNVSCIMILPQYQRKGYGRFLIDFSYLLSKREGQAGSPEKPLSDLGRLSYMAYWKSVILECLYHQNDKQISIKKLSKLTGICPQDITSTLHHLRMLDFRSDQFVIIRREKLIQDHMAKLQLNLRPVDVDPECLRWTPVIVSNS
Assay: KAT-6A biochemical inhibition assay (SAMDI mass spectrometry)
pIC50: −log10 of the molar value.
Measured pIC50 by item

Worked set:
Cn1cnc(-c2cc(Cl)c(F)c(C(=O)NNS(=O)(=O)C3CCN(C(=O)OC(C)(C)C)CC3)c2)c1 [Compound I-3]: > 5.00
Cc1cn(-c2cc(Cl)c(F)c(C(=O)NNS(=O)(=O)CC3CCOCC3)c2)nn1 [Compound I-50]: > 5.00
Cn1cnc(-c2cc(Cl)c(F)c(C(=O)NNS(=O)(=O)CC3CCC3)c2)c1 [Compound I-31]: > 5.00
CCC(=O)N(C)C1CCC(CS(=O)(=O)NNC(=O)c2cc(-c3cn(C)cn3)cc(Cl)c2F)CC1 (stereo not drawn) [Compound I-326]: > 5.00
CC(C)C(=O)NC1CCCC(CS(=O)(=O)NNC(=O)c2cc(-c3cn(C)cn3)cc(Cl)c2F)C1 (stereo not drawn) [Compound I-206]: > 5.00
CCn1cnc(-c2cc(Cl)c(F)c(C(=O)NNS(=O)(=O)CC3CCCCC3)c2)c1C [Compound I-28]: < 4.00

// field: pIC50; key: O=C(NNS(=O)(=O)CC1CCCCC1)c1cc(-c2cn(Cc3ncco3)cn2)cc(Cl)c1F [Compound I-219] ; value = > 5.00

// CCNC(=O)N1CCCC(CS(=O)(=O)NNC(=O)c2cc(-c3cn(C)cn3)cc(Cl)c2F)C1 (stereo not drawn) [Compound I-105] : pIC50 value = > 5.00

Form: compound = CCC(=O)N[C@H]1CC[C@H](CS(=O)(=O)NNC(=O)c2cc(-c3cn(C)cn3)cc(Cl)c2F)CC1 [Compound I-195] ; pIC50 = > 5.00

Noted for COc1cc(F)c(S(=O)(=O)NNC(=O)c2cc(-c3cn(C)cn3)cc(Cl)c2F)cc1OCc1ccccc1 [Compound I-451] : its pIC50 reads 4.30 to 5.00

The reported value for CN1CCN([C@H]2CC[C@H](CS(=O)(=O)NNC(=O)c3cc(-c4cn(C)cn4)cc(Cl)c3F)CC2)C1=O [Compound I-319] in terms of pIC50 is > 5.00

Please fill in: pIC50 reported for CCNC(=O)N[C@@H]1CCC[C@@H](CS(=O)(=O)NNC(=O)c2cc(-c3cn(C)cn3)cc(Cl)c2F)C1 [Compound I-355] = > 5.00

For reference, reported pIC50 for Cn1cnc(-c2cc(Cl)c(F)c(C(=O)NNS(=O)(=O)C[C@H]3CCNC3)c2)c1 [Compound I-121] stands at 4.30 to 5.00

CC1CCC(CS(=O)(=O)NNC(=O)c2cc(-c3cn(C)cn3)cc(Cl)c2F)CC1 (stereo not drawn) [Compound I-313] yielded pIC50 of > 5.00

The reported value for CC1CCCCC1CS(=O)(=O)NNC(=O)c1cc(-c2cn(C)cn2)cc(Cl)c1F (stereo not drawn) [Compound I-335] in terms of pIC50 is > 5.00
